# measurement target: SSTR4 (Homo sapiens (Human), UniProt P31391)
# Sequence (P31391 whole entry): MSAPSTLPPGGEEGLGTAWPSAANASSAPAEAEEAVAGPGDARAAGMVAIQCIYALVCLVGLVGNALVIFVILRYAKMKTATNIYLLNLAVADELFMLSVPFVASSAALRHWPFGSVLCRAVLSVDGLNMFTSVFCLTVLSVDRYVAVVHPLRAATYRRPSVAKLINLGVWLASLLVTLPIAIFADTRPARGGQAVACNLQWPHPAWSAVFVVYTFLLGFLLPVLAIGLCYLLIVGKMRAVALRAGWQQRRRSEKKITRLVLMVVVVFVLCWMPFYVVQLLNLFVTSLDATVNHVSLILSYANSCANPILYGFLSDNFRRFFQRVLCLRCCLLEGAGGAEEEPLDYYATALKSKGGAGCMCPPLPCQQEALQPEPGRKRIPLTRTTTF
# measurement protocol: Inhibition of forskolin stimulated cAMP in CHO-K1 cells overexpressing SSTR4
# Format: cell-based
# conditions used: read-out: SSTR4 Activity pEC50 (converted)
parameter: EC50 (nM)
One number for each entry, in nM.

Examples with their reported EC50 follow.
>>> recorded_number("CC(C)(COc1ncccc1C(F)(F)F)C(=O)O[C@@H]1CCNC[C@H]1c1ccccc1 (relative stereo)")
316
>>> recorded_number("CN1CC[C@@H](c2cnn(C)c2)[C@H](NC(=O)C(C)(C)COc2ncccc2C(F)(F)F)C1 (relative stereo)")
251
>>> recorded_number("Cc1ccc([C@@H]2CN(C)C[C@H]2NC(=O)C(C)(C)COc2ncccc2C2CC2)cn1 (relative stereo)")
63.1

Here's the next entry for you.
Which EC50 value is on record for CN1C[C@@H](NC(=O)C(C)(C)COc2ncccc2C(F)(F)F)[C@H](c2ccc(Cl)cc2)C1 (relative stereo) ?
25.1

----------
# measurement target: SSTR4 (Homo sapiens (Human), UniProt P31391)
# measurement protocol: SSTR4 I-125 somatostatin competition binding assay (membranes from CHO-K1 cells overexpressing SSTR4)
# conditions used: competition with I-125 labeled somatostatin, read-out: SSTR4 Binding pIC50 (converted)
parameter: IC50 (nM)
Give bare numbers, in nM.

Sample records with IC50:
>>> recorded_number("C[C@@H]1CN(C)C[C@H]1NC(=O)C(C)(C)COc1ncccc1C1CC1 (racemic)")
398
>>> recorded_number("Cc1ccccc1[C@@H]1CNCC[C@H]1OC(=O)C(C)(C)COc1ncccc1C(F)(F)F (racemic)")
158
>>> recorded_number("Cc1ncccc1[C@@H]1CNCC[C@H]1N(C)C(=O)C(C)(C)COc1ncccc1C(F)(F)F (racemic)")
2000
>>> recorded_number("CN1C[C@@H](NC(=O)C(C)(C)COc2ncccc2C2CC2)[C@H](c2ccc(C(F)(F)F)nc2)C1 (racemic)")
200
>>> recorded_number("CN1CC[C@@H](NC(=O)C(C)(C)COc2ncccc2C(F)(F)F)[C@H](c2cnn(C(F)F)c2)C1 (racemic)")
50.1
>>> recorded_number("CC[C@@H]1CN(C)CC[C@H]1NC(=O)C(C)(C)COc1ncccc1OC(F)(F)F (racemic)")
5.01
>>> recorded_number("Cc1cnc(OCC(C)(C)C(=O)N[C@@H]2CCN(C)C[C@H]2C)c(C)c1 (single isomer, unassigned)")
251
>>> recorded_number("CN(C(=O)C(C)(C)COc1ncccc1C(F)(F)F)[C@@H]1CCNC[C@H]1c1ccccc1 (racemic)")
1580

For each of the compounds below, state IC50.
1. Cc1cccnc1OCC(C)(C)C(=O)N[C@@H]1CN(C)C[C@H]1C (racemic)
2. C[C@H]1C[C@@H](NC(=O)C(F)(F)COc2ncccc2C(F)(F)F)CCN1C (racemic)
3. Cc1ncccc1[C@@H]1CNCC[C@H]1OC(=O)C(C)(C)COc1ncccc1C(F)(F)F (racemic)
4. C[C@@H]1CN(C)C[C@H]1NC(=O)C(C)(C)COc1ncccc1C(F)(F)F (racemic)

1. 794
2. 200
3. 200
4. 158

Hi, could you look up IC50 for each item in my list?
1. CC(C)[C@@H]1CN(C)C[C@H]1NC(=O)C(C)(C)COc1ncccc1C(F)(F)F (racemic)
2. Cc1ccc([C@@H]2CN(C)C[C@H]2NC(=O)C(C)(C)COc2ncccc2C(F)(F)F)cn1 (racemic)
3. CC[C@@H]1CN(C)CC[C@H]1NC(=O)C(C)(C)COc1ncccc1C (racemic)
4. C[C@@H]1CN(C)CC[C@H]1NC(=O)C(F)(F)COc1ncccc1OC(F)(F)F (racemic)
5. CC[C@@H]1CN(C)CC[C@H]1NC(=O)C(C)(C)COc1ncc(C)cc1C (racemic)
6. Cc1cccnc1OCC(F)(F)C(=O)N[C@@H]1CCN(C)C[C@H]1C (racemic)

158
200
79.4
126
63.1
794
